Below, each entry is listed alongside its reported growth inhibition.
Experiment: NCI Yeast Anticancer Drug Screen. Data for the cln2 rad14 strain (AID 165);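 note: 0% = growth equal to vehicle treated cultures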
Conditions: S. cerevisiae cln2 rad14 strain, at 5.0 µM (retest, dose inferred, filed as 0.5), active compounds read high
The panel holds about 79,000 compounds, 15% with a hit somewhere; the sample as a whole holds those more often.
EXPERIMENTAL READOUT: growth inhibition (%)

O=C(O)CCC(=O)NNc1ccccc1    8
O=C(CCn1[nH]c(=O)c(Cl)c(Cl)c1=O)NNc1ccc([N+](=O)[O-])cc1[N+](=O)[O-]    -2
Nc1ccc([N+](=O)[O-])cc1Nc1c2ccccc2nc2ccccc12    -1
O=[N+]([O-])/C=C/c1c[nH]c2c1ccc1ccccc12    30
Cn1c2nc(-[n+]3ccc(-c4ccccc4)cc3)nc-2c([O-])n(C)c1=O    -3
Clc1ccc(C2=CCCc3ccccc32)cc1    5
NC(=O)c1ncn(C2OC(CO)C(O)C2O)c1O (stereo not drawn)    13
CCCCN(C(=O)c1ccccc1)C1CCC(=O)c2[nH]c3ccccc3c21 (stereo not drawn)    -13
COc1cc(C(c2cc3c(cc2O)OCO3)N2CCN(C(c3ccc(O)c(OC)c3)c3cc4c(cc3O)OCO4)CC2)ccc1O (stereo not drawn)    2
N#CCCN(CCC#N)Cc1c(O)c(O)c(CN(CCC#N)CCC#N)c2ccccc12    0
O=C(C=P(c1ccccc1)(c1ccccc1)c1ccccc1)c1ccccc1-c1ccccc1C(=O)C=P(c1ccccc1)(c1ccccc1)c1ccccc1    97
COc1ccccc1NC(=O)/C(=C/n1c(=S)sc2ccccc21)C(C)=O    11
N#CC(C#N)=c1c2nsnc2c(=C(C#N)C#N)c2nsnc12    55
COc1cc(NCCCCCNC(C)C)c2ncc(C)c(C)c2c1    7
CCC[CH2][Sn]([CH2]CCC)([O]C(=O)c1cc(OC)c(OC)cc1OC)[O]C(=O)c1cc(OC)c(OC)cc1OC    79
CCCCCCCCCCCCCCCCCC[n+]1ccc(C(C)CC)cc1 (stereo not drawn)    16
CC(=O)Sc1ccccc1C(=O)NCc1ccc(Cl)cc1    -12
CC12CCCCC1CCC(Br)C2=O (stereo not drawn)    -50
